- assayed system: PDGFRB(DKIN) (PDGFR-β) (Homo sapiens, UniProt P09619)
- Construct: PDGFRB(DKIN)
- method description: Phage-display competitive binding assay, PDGFRB(DKIN)
- condition summary: T7 phage displaying human PDGFR-β, DKIN construct; read-out: Binding Assay: PDGFRB(DKIN)
- Description: The term “ND” represents non-determined values. Briefly, T7 phage displaying human PDGFR-β were incubated with an affinity matrix coated with known PDGFR-β inhibitor in the presence of various concentrations of the soluble competitor molecules.
pKd: −log10 of the molar value.
// reported pKd for each item listed

Memo: CC(C)(C)c1cc(NC(=O)Nc2ccc(NC(=O)c3ccc4sccc4c3)cc2)no1 [Compound N122] , reported pKd: > 7.00

// sample CC(C)(C)c1cc(NC(=O)Nc2ccc(C(=O)Nc3ccccc3)cc2)no1 [Compound N90] , its pKd was 6.00 to 7.00

Looking up CC(C)(C)c1cc(NC(=O)Nc2ccc(OCc3cccc(Cl)c3)cc2)no1 [Compound G11] , I see its pKd listed as > 7.00

Sure, the documented pKd for CC(C)(C)c1cc(NC(=O)Nc2ccc(CCc3ccccc3)cc2)no1 [Compound A15] is > 7.00

The recorded pKd for entry CC(C)(C)c1cc(NC(=O)Nc2ccc(OCCN3CCC(O)CC3)cc2)no1 [Compound G48] equals 5.00 to 6.00

Note to self: pKd recorded for O=C(Nc1ccccc1)Nc1ccc(-n2cnc(Cl)c2Cl)cc1 [Compound Z65] was 6.00 to 7.00

Query CC(C)(C)c1cc(NC(=O)Nc2ccc(NC(=O)c3cccc(F)n3)cc2)no1 [Compound N8] yields pKd of > 7.00

// pKd lookup, compound = CC(C)(C)c1cc(NC(=O)Nc2ccc(NC(=O)c3cc4cc(Br)ccc4s3)cc2)no1 [Compound N17] , result: > 7.00

---

- assayed system: PDGFRB(JMplus) (PDGFR-β) (Homo sapiens)
- Construct: PDGFRB(JMplus)
- Sequence (P09619 600-962 limits assumed): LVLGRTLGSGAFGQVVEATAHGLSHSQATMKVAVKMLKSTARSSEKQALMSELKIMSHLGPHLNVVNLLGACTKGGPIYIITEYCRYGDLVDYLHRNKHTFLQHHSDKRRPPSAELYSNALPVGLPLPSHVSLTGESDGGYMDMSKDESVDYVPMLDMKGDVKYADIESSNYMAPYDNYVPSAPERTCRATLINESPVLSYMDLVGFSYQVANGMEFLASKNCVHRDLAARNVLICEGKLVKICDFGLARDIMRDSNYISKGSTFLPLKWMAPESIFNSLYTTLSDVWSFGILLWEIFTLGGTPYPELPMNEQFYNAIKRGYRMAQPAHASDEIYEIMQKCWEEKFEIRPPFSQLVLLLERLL
- method description: Phage-display competitive binding assay, PDGFRB(JMplus)
measure: Kd

Fill in: PDGFRB(JMplus) (PDGFR-β) (Homo sapiens) Kd for CC(C)(C)c1cc(NC(=O)Nc2ccc(NC(=O)c3ncccc3O)cc2)no1 = < 100 nM

---

- assayed system: PDGFRB(DKIN) (PDGFR-β) (Homo sapiens, UniProt P09619)
- Construct: PDGFRB(DKIN)
- method description: Phage-display competitive binding assay, PDGFRB(DKIN)
- condition summary: T7 phage displaying human PDGFR-β, DKIN construct; read-out: Binding Assay: PDGFRB(DKIN)
measure: Kd

Observe how each entry below is paired with its result.
>>> readout_value("C=CCOc1ccc(NC(=O)Nc2cc(C(C)(C)C)no2)cc1")
"< 100 nM"
>>> readout_value("COc1ccc(NC(=O)Nc2cc(C(C)(C)C)on2)cc1OC")
"1000 to 10000 nM"
>>> readout_value("COc1cc(OC)nc(Oc2ccccc2C(=O)Nc2ccc(NC(=O)Nc3cc(C(C)(C)C)on3)cc2)n1 [Compound N70]")
"1000 to 10000 nM"
>>> readout_value("Cc1noc(-c2ccc(NC(=O)Nc3cc(C(C)(C)C)on3)cc2)n1")
"< 100 nM"

Tested on PDGFRB(DKIN) (PDGFR-β) (Homo sapiens, UniProt P09619), the item Cc1[nH]c(C(=O)Nc2ccc(NC(=O)Nc3cc(C(C)(C)C)on3)cc2)c(C)c1CCC(=O)O showed Kd equal to < 100 nM

The reported PDGFRB(DKIN) (PDGFR-β) (Homo sapiens, UniProt P09619) Kd of CC(C)(C)c1cc(NC(=S)Nc2ccc(N3CCOCC3)cc2)no1 is > 10000 nM

# COc1ccc(N(C)C(=O)Nc2cc(C(C)(C)C)on2)cc1 with PDGFRB(DKIN) (PDGFR-β) (Homo sapiens, UniProt P09619): Kd is < 100 nM

Item CC(C)(C)c1cc(NC(=O)Nc2ccc(NC(=O)c3cccc(Br)c3)cc2)no1 was tested on PDGFRB(DKIN) (PDGFR-β) (Homo sapiens, UniProt P09619); the reported Kd is 1000 to 10000 nM

// returns Kd for CC1CN(CCOc2ccc(NC(=O)Nc3cc(C(C)(C)C)on3)cc2)CCN1 (stereo not drawn) with PDGFRB(DKIN) (PDGFR-β) (Homo sapiens, UniProt P09619); value = 1000 to 10000 nM

I looked up CC(C)(C)c1cc(NC(=O)Nc2ccc(NC(=O)Cc3noc4ccccc34)cc2)no1 and its Kd for PDGFRB(DKIN) (PDGFR-β) (Homo sapiens, UniProt P09619) was < 100 nM

Per the reported PDGFRB(DKIN) (PDGFR-β) (Homo sapiens, UniProt P09619) data, CC(C)(C)c1cc(NC(=O)Nc2ccc(NC(=O)c3ccc(-n4cc(-c5ccncn5)cn4)cc3)cc2)no1 has Kd of 100 to 1000 nM
